The measured values listed here are drawn from PubChem BioAssay AID434987.

Test system: M. tuberculosis H37Rv growth inhibition with meropenem
assay_overview: dose response, H37Rv, with and without meropenem (AID 434987);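 note: growth over 7 days at 37 °C before Alamar Blue read on day 9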
particulars: M. tuberculosis H37Rv growth inhibition; measured here: IC50 without meropenem
property_measured: IC50 (µM)
Report as a plain number; the unit µM is understood.

CCCc1cc(C(=O)Nc2ccc(C(C)=O)cc2)no1
24.4
COc1ccc(C(=O)CN(C(=O)c2ccc(Cl)cc2)N2C(=O)c3ccccc3C2=O)cc1
34.9
COc1cc(CNCCO)cc(Br)c1OCc1ccccc1Cl
47.5

// below: IC50 requested for another molecule
Req: Fill blank: measured IC50 of the molecule `CC(C)(C)c1cc(Cc2ccccc2)[nH]n1` is ____.
Resp: 43.1

* * *

System: M. tuberculosis H37Rv growth inhibition with meropenem
assay_overview: dose response, H37Rv, with and without meropenem (AID 434987);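 note: growth over 7 days at 37 °C before Alamar Blue read on day 9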
particulars: M. tuberculosis H37Rv growth inhibition; measured here: IC50 without meropenem
Catalogue of compounds with associated IC50

Field: example entries. Status: answers known.
NNC(=S)NC1CC2CC1C1C=CCC21 (configuration not stated)
21.1 µM
NNC(=S)Nc1ccc(C(F)(F)F)cc1Cl
> 100 µM
O=C(CSc1nc2ncc(Cl)cc2[nH]1)Nc1cccc(F)c1
> 100 µM

Req: Name the recorded IC50 for `O=C(OCn1nnc2ccccc2c1=O)c1ccc2c(=O)n3c(nc2c1)CCC3` .
Resp: 35.4 µM

Req: Item `Cc1cc(C)c2oc(-c3ccc(Cl)c(NC(=O)c4ccc(C#N)cc4F)c3)nc2c1` has what recorded IC50?
Resp: > 100 µM

Req: Any idea what its IC50 is? The compound is `O=C(O)Cc1csc(Nc2cccc(Cl)c2)n1`
Resp: > 100 µM

Req: Please report the recorded IC50 for `Cc1ccccc1NC(=O)c1ccc(CN(c2ccccc2)S(=O)(=O)c2ccccc2)cc1` .
Resp: > 100 µM

Req: If you can, please state the reported IC50 value of `Nc1c(C(=O)N2CCCC2)sc2nc3c(cc12)CCCCCC3` .
Resp: 92.2 µM

Req: Entry `O=C(Nc1nc(-c2ccc3c(c2)OCCO3)cs1)c1ccc(S(=O)(=O)N2CCCCC2)cc1` : reported IC50 = ?
Resp: > 100 µM

Req: # get_value(readout='IC50', item= `Cc1cccc(Cn2c(N3CCN(c4ccccc4)CC3)nc3c2c(=O)n(C)c(=O)n3C)c1` )
Resp: > 100 µM

Req: For the compound shown here, `CCNC(=O)CCn1nc(-c2ccc(Cl)cc2)c2ccccc2c1=O` , give the reported IC50.
Resp: > 100 µM

Req: # get_value(readout='IC50', item= COc1ccc(C2C(C#N)=C(SCC(=O)Nc3ccc(C)cc3)NC3=C2C(=O)CC(C)(C)C3)cc1 (configuration not stated) )
Resp: > 100 µM

Req: If you can, please state the reported IC50 value of `N#CCOC(=O)/C=C/c1ccc2c(c1)OCO2` .
Resp: > 100 µM

Req: Fill blank: measured IC50 of the compound `COc1ccc2ccccc2c1/C=N/NC(=O)c1cccc(C)c1` is ____.
Resp: > 100 µM

* * *

System: M. tuberculosis H37Rv growth inhibition with meropenem
assay_overview: dose response, H37Rv, with and without meropenem (AID 434987);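 note: growth over 7 days at 37 °C before Alamar Blue read on day 9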
particulars: measured here: IC90 with meropenem
property_measured: IC90

Cc1onc(-c2c(Cl)cccc2Cl)c1/C(N)=N/OC(=O)C1CC1
> 25 µM
OCCCc1cn(-c2ccccc2)c2ccccc12
60.8 µM
COc1ccc(Cl)cc1NC(=O)CN(C)C(=O)c1ccc(N2CCCCCC2)c([N+](=O)[O-])c1
> 100 µM

Req: Query (compound): `O=C(Cc1ccc(Cl)cc1Cl)Nc1ccc(OC(F)F)c(Cl)c1` ; field requested: IC90
Resp: 13.7 µM

Req: Fill in: IC90 of `O=C(Cn1ncc2c3ccccc3n(Cc3ccccc3F)c2c1=O)NCCCN1CCCC1=O` is ___
Resp: > 100 µM

* * *

Test system: M. tuberculosis H37Rv growth inhibition with meropenem
assay_overview: dose response, H37Rv, with and without meropenem (AID 434987);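 note: growth over 7 days at 37 °C before Alamar Blue read on day 9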
particulars: M. tuberculosis H37Rv growth inhibition; measured here: IC50 without meropenem
property_measured: IC50 (µM)
// return numeric value only (unit: µM, not printed)

Check out these entries, answers already filled in.
CCCCC12CN3CC(C)(CN(C1)C3c1ccc([N+](=O)[O-])o1)C2=O (configuration not stated)
27
O=C(CSc1ncn[nH]1)Nc1cccc2ccccc12
50.7
COc1cc(OC)cc(-c2cc3ccc(OC)cc3cn2)c1
39
CC(C)CCN1CC(O)=C(c2nc3ccccc3[nH]2)C1=N
73
O=C1N/C(=C\c2ccc(O)cc2)C(=O)c2ccccc21
59.6
CCn1cc(C(=O)O)c(=O)c2cc(F)c(N3CCN(C(=S)NC(=O)c4ccccc4C)CC3)cc21
19.5

Req: Dear colleague, I am looking for the recorded IC50 of the following compound: `CCc1ccc2oc(-c3cc(N)cc(C)c3O)nc2c1`
Resp: 93.2

* * *

Tested on: M. tuberculosis H37Rv growth inhibition with meropenem
assay_overview: dose response, H37Rv, with and without meropenem (AID 434987);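 note: growth over 7 days at 37 °C before Alamar Blue read on day 9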
particulars: measured here: IC90 with meropenem
property_measured: IC90

Guide cases for IC90, answers given:
CCCCCc1ccc(-c2ccc(/C=C/C(N)=O)cc2)nc1
> 100 µM
Cn1c(/C=C/c2ccc(Cl)cc2)nc2ccccc2c1=O
> 100 µM
O=c1oc(-c2cccs2)nc2sc3c(c12)CCC3
> 100 µM
C/C(=N\NC(=O)c1ccncc1)c1c(O)n(-c2ccccc2)c(=O)[nH]c1=O
3.94 µM
COc1ccc(/C(O)=C/C(=O)C(=O)NNC(=O)C(O)(c2ccccc2)c2ccccc2)cc1
> 100 µM

Req: Fill blank: measured IC90 of the molecule `CNC(=O)COC(=O)c1ccccc1NC(=O)c1ccco1` is ____.
Resp: > 100 µM

Req: // lookup IC90 for `Cc1cccc(NC(=O)c2nc[nH]c2C(=O)N[C@@H](CC(C)C)C(=O)OCc2ccccc2)c1`
Resp: > 100 µM

Req: Requested field: IC90. Item: Cc1ccccc1C(=O)Oc1ccccc1N1C(=O)C2CC=CCC2C1=O (stereo unspecified)
Resp: > 100 µM

Req: What value of measured IC90 is listed for `O=C(NCCC1=CCCCC1)c1ccc(Cl)c([N+](=O)[O-])c1` ?
Resp: 30.2 µM

Req: Dear colleague, I am looking for the recorded IC90 of the following molecule: `CCOC(=O)/C(=N\Nc1ccccc1)c1csc(Nc2ccc(C)cc2)n1`
Resp: > 100 µM

Req: Given `Clc1ccc(Cn2cc(/C=N/n3cnnc3)c3ccccc32)cc1` , state its recorded IC90.
Resp: > 100 µM

* * *

Tested on: M. tuberculosis H37Rv growth inhibition with meropenem
assay_overview: dose response, H37Rv, with and without meropenem (AID 434987);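 note: growth over 7 days at 37 °C before Alamar Blue read on day 9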
particulars: measured here: IC90 with meropenem
property_measured: IC90

Consider the worked cases shown below.
S=C(Nc1ccc(Cl)cc1)c1nc2ccccc2s1
> 100 µM
CCCC(=O)Nc1ccc(NC(=S)NC(=O)c2cccs2)cc1
> 100 µM
CC(/C=N/NC(=O)c1cc(C(C)(C)C)[nH]n1)=C\c1ccccc1
> 100 µM
O=C(N/N=C/c1ccc([N+](=O)[O-])o1)c1ccccc1-n1cccc1
29.4 µM
CCC(C)C(NC(N)=O)C(=O)Nc1ccc(OCc2ccccc2)cc1 (stereo unspecified)
> 100 µM

Would you kindly look at the next entry?
Req: Value wanted: IC90 (M. tuberculosis H37Rv growth inhibition with meropenem) of entry CCOc1ccc2nc(SC3CC(=O)N(c4cccc(OC)c4)C3=O)sc2c1 (stereo unspecified)
Resp: 25.7 µM

* * *

Tested on: M. tuberculosis H37Rv growth inhibition with meropenem
assay_overview: dose response, H37Rv, with and without meropenem (AID 434987);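 note: growth over 7 days at 37 °C before Alamar Blue read on day 9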
particulars: M. tuberculosis H37Rv growth inhibition; measured here: IC50 without meropenem
property_measured: IC50 (µM)
Write the number in µM without appending the unit.

Take a look at these entries with their results.
O=C(/C=C/c1ccccn1)c1cc(Br)ccc1O
37.4
CN(NC(=O)c1c(Cl)cccc1Cl)c1cccc(Cl)n1
62.3
Cc1cc(F)ccc1NCC(=O)Nc1ccc(Br)cc1C
98.2
CCCCN=C1CC(C)(C)CC(=O)/C1=C(/O)CCC
42.1
COc1cc(C(=O)Oc2cccnc2)cc(OC)c1OC
48.4

Req: So what's the measured IC50 for this one? `Cc1cc(C)n(-c2nc3ccccc3c(=O)n2OCC(=O)N(C)C)n1`
Resp: 79.2

Req: Would you kindly share the measured IC50 for N#Cc1ccc(C23CC4(C2)[C@H](CN(Cc2cccnc2)[C@@H]4c2ccccc2)C3c2ccccc2)cc1 (stereo partly drawn) ?
Resp: 72.8

Req: Please report the recorded IC50 for `CC(=O)c1ccc(-n2c(C)ccc2-c2ccccc2)cc1` .
Resp: 61.3

Req: // query IC50 value for entry `O=C1COc2ccc(C(=O)CCl)cc2N1`
Resp: 24.7

Req: What value of IC50 has been reported for the following compound? `CCOC(=O)c1c(C)oc2c1c(CN1CCN(C(=O)OCC)CC1)c(O)c1ccccc12`
Resp: 51.2

Req: Returns the measured IC50 for the input compound. Input: `CN1CCN(c2ccc(NC(=O)c3ccc(-c4cccc([N+](=O)[O-])c4)o3)cc2)CC1`
Resp: 6.97
